- System: B16-F1
- ASSAY METHOD TEXT: Antiproliferative activity against mouse B16-F1 cells assessed as inhibition of cell growth after 48 hrs by sulforhodamine B colorimetric assay
- Assay type: functional
- RUN CONDITIONS: B16-F1, 48 h
METRIC: GI50 (µM)
All answers are understood in µM, so give the number only.

Consider the following illustrative entries.
[[record]]
smi = "CC(C)C[C@H](NC(=O)[C@@H](NS(=O)(=O)c1ccc(/N=N/c2ccccc2)cc1)C(C)C)C(=O)C(N)=O"
system_tested = "B16-F1"
metric = "GI50"
obs_value = 18.7

[[record]]
smi = "CC(=O)O[C@H]1C(=O)[C@@]2(C)[C@H]([C@H](OC(=O)c3ccccc3)[C@]3(O)C[C@H](OC(=O)[C@H](O)[C@@H](NC(=O)c4ccccc4)c4ccccc4)C(C)=C1C3(C)C)[C@]1(OC(C)=O)CO[C@@H]1C[C@@H]2O"
system_tested = "B16-F1"
metric = "GI50"
obs_value = 0.02

[[record]]
smi = "CC(C)C[C@@H](C=O)NC(=O)[C@@H](NS(=O)(=O)c1ccc(/N=N/c2ccccc2)cc1)C(C)C"
system_tested = "B16-F1"
metric = "GI50"
obs_value = 13.7

[[record]]
smi = "CC(C)C[C@H](NC(=O)[C@@H](NS(=O)(=O)c1ccc(/C=C/c2ccccc2)cc1)C(C)C)C(=O)C(N)=O"
system_tested = "B16-F1"
metric = "GI50"
obs_value = 17.2

[[record]]
smi = "CC(C)C[C@@H](C=O)NC(=O)[C@@H]1CCCN1S(=O)(=O)c1ccc(/N=N/c2ccccc2)cc1"
system_tested = "B16-F1"
metric = "GI50"
obs_value = 13.6


Next, consider the following compound.
**Q:** Quick one: GI50 of `CC(C)C[C@@H](C=O)NC(=O)[C@@H](NS(=O)(=O)c1ccc(/C=C/c2ccccc2)cc1)C(C)C` ?
**A:** 10.3

###

- SYSTEM TESTED: Calpain-1 catalytic subunit (Sus scrofa, UniProt P35750)
- Sequence (P35750 whole entry): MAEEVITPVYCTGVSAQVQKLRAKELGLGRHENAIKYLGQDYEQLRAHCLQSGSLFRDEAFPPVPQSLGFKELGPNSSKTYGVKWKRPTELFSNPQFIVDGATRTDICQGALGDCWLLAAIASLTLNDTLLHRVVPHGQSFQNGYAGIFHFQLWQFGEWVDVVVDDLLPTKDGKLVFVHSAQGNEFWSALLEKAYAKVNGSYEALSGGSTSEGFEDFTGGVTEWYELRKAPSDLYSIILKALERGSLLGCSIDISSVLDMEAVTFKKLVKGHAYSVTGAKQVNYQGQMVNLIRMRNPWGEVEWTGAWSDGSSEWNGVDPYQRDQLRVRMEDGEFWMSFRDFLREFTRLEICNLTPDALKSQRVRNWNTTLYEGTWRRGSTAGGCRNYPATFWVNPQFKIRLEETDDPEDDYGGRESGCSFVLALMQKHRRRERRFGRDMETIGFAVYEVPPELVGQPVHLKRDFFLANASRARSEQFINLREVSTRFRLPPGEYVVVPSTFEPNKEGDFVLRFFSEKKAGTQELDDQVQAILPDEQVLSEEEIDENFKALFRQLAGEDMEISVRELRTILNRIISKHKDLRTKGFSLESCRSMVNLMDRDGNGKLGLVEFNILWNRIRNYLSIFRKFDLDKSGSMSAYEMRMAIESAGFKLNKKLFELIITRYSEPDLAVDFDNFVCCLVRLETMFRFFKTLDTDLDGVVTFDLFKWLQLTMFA
- ASSAY METHOD TEXT: Inhibition of mu-calpain in porcine erythrocyte using Suc-Leu-Tyr-AMC as substrate by microtiter plate assay based Dixon plot analysis
Where a SMILES comes first, the peptide text is derived from it. The star is where a group is joined. Cbz = O=C(OCc1ccccc1)*
METRIC: pKi
Hey, just a heads up that pKi is the negative log base 10 of the concentration in molar.

**Q:** May I ask what pKi has been recorded for `CC(C)C[C@H](NC(=O)[C@@H](NS(=O)(=O)c1ccc(/N=N/c2ccccc2)cc1)C(C)C)C(=O)C(N)=O` ?
**A:** 7.80

**Q:** Given `CC(C)C[C@H](NC(=O)[C@@H](NS(=O)(=O)c1ccc(/C=C/c2ccccc2)cc1)C(C)C)C(=O)C(N)=O` , state its recorded pKi.
**A:** 8.05

**Q:** What measured pKi goes with `CC(C)C[C@@H](C=O)NC(=O)[C@@H](NS(=O)(=O)c1ccc(/C=C/c2ccccc2)cc1)C(C)C` ?
**A:** 7.85

**Q:** Endpoint output: pKi of `CC(C)C[C@@H](C=O)NC(=O)[C@@H](NS(=O)(=O)c1ccc(/N=N/c2ccccc2)cc1)C(C)C` . Value?
**A:** 7.74

**Q:** Given the molecule `CC(C)C[C@@H](C=O)NC(=O)[C@@H]1CCCN1S(=O)(=O)c1ccc(/N=N/c2ccccc2)cc1` , what is its reported pKi?
**A:** 6.56

**Q:** Which pKi value belongs to CC(C)[C@H](NC(=O)OCc1ccccc1)C(=O)N[C@H](C=O)Cc1ccccc1 (Cbz-Val-Phe-aldehyde) ?
**A:** 8.00
